Target: Histone-lysine N-methyltransferase EHMT2 (Homo sapiens)
Experiment: qHTS Assay for Inhibitors of Histone Lysine Methyltransferase G9a; further: nearly all actives have a fitted effect of over 75% in size; further: potency means the concentration at half of the fitted maximal effect
Conditions: G9a H3K9 monomethylation, AlphaScreen, 2 h; series mostly up to 59 µM
The campaign covered roughly 350,000 compounds. About 31,000 (8.9%) were called active. About 15% were inconclusive and are not listed. This excerpt belongs to a sample that is enriched for actives.
VALUE_KIND: Potency

Here are 10 compounds together with their reported answers.
Response field Potency (Histone-lysine N-methyltransferase EHMT2 (Homo sapiens)) for item `Cc1ccc(-c2cn3c(n2)sc2cc(C(=O)NCc4cccs4)ccc23)c(C)c1` : inactive

The measured Potency that `CCCNC(=O)c1c(N)n(-c2ccc(S(N)(=O)=O)cc2)c2nc3ccccc3nc12` showed for Histone-lysine N-methyltransferase EHMT2 (Homo sapiens) is 50.1 µM (active)

Known value: Histone-lysine N-methyltransferase EHMT2 (Homo sapiens) Potency of the compound `CCOC(=O)c1ccc(NC(=O)c2ncn(-c3ccccc3)n2)cc1` equals inactive

I looked up `O=C(/C=C/c1c(F)cccc1Cl)Nc1nn[nH]n1` and its Potency for Histone-lysine N-methyltransferase EHMT2 (Homo sapiens) was 39.8 µM (active)

Response field Potency (Histone-lysine N-methyltransferase EHMT2 (Homo sapiens)) for item `COc1ccc2c(c1)c(=O)c(C(=O)c1ccccc1)cn2CC(=O)Nc1ccc2c(c1)OCCO2` : inactive

Considering Cc1ccc(-c2nc(CS(=O)CC(=O)NC3CCCC3)c(C)o2)cc1 (stereo unspecified) , its Potency with Histone-lysine N-methyltransferase EHMT2 (Homo sapiens) was recorded as 70.8 µM (active)

Lab note: compound `O=C(CCc1ccccc1)Nc1nn[nH]n1` tested on Histone-lysine N-methyltransferase EHMT2 (Homo sapiens); recorded Potency was inactive

Lab entry: Histone-lysine N-methyltransferase EHMT2 (Homo sapiens) assay, compound `CCOc1ccc(NC(=O)Cn2c(=O)n(CCCC(=O)NCc3ccc4c(c3)OCO4)c(=O)c3ccccc32)cc1` , Potency = inactive

Potency for Histone-lysine N-methyltransferase EHMT2 (Homo sapiens) with input `O=C(COc1ccc(Cl)cc1)N(Cc1ccco1)Cc1ccco1` equals inactive

Readout Potency for `Cc1cc(NC(=O)Cn2nc(C(F)(F)F)c3c2CCCC3)no1` , test system Histone-lysine N-methyltransferase EHMT2 (Homo sapiens), was inactive

---
Record C=CS(=O)c1sc(Cl)c(N2CCOCC2)c1[N+](=O)[O-] (stereo unspecified) / Histone-lysine N-methyltransferase EHMT2 (Homo sapiens), Potency recorded as 1.58 µM (active)

Kindly note: Histone-lysine N-methyltransferase EHMT2 (Homo sapiens), `CCCCCn1c(=O)[nH]c2cc(C(=O)Nc3ccc(F)cc3)ccc2c1=O` , Potency value reported: inactive

So the reported Potency for `CCN(CC)c1ccc(NC(=O)Cn2nc3c(cc2=O)CCCC3)c(C)c1` , on Histone-lysine N-methyltransferase EHMT2 (Homo sapiens), turned out to be 11.2 µM (active)

Hey, Histone-lysine N-methyltransferase EHMT2 (Homo sapiens) data for COc1ccc(-c2nc(CS(=O)CC(=O)NCc3ccccc3)c(C)o2)cc1OC (stereo unspecified) : Potency came out at inactive

Test item `O=C(COc1ccc(Cl)cc1)Nc1ccc2c(c1)OCO2` ; Histone-lysine N-methyltransferase EHMT2 (Homo sapiens); reported Potency was inactive

Measured Potency for this entry `COc1cc(OC)c(NC(=O)Cc2ccc(-n3c(C)nc4cccnc43)cc2)cc1Cl` on Histone-lysine N-methyltransferase EHMT2 (Homo sapiens): inactive

Short answer on Histone-lysine N-methyltransferase EHMT2 (Homo sapiens) for `CCOC(=O)c1c(C)n(S(=O)(=O)c2ccc(C)cc2C)c2ccc(NS(=O)(=O)c3ccc(C)cc3C)cc12` , Potency: inactive

Lab note: compound `CCc1ccc(-n2nc(C)c3c(C)cc(=O)n(CC(=O)Nc4ccc(F)cc4C)c32)cc1` tested on Histone-lysine N-methyltransferase EHMT2 (Homo sapiens); recorded Potency was inactive

* * *

Biological target: Histone-lysine N-methyltransferase EHMT2 (Homo sapiens) (UniProt Q96KQ7)
Sequence (Q96KQ7 913-1193 limits assumed): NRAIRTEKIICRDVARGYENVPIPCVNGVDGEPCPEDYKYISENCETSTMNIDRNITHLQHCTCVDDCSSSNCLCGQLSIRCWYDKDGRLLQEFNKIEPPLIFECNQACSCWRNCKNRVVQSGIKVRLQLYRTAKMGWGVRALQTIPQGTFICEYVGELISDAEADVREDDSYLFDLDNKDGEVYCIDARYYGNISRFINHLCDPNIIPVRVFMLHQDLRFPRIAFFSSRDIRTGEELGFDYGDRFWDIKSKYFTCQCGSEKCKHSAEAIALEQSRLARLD
Assay: qHTS Assay for Inhibitors of Histone Lysine Methyltransferase G9a; further: nearly all actives have a fitted effect of over 75% in size; further: potency means the concentration at half of the fitted maximal effect
Conditions: G9a H3K9 monomethylation, AlphaScreen, 2 h; series mostly up to 59 µM
Experimental: Methylated lysines, on the N-terminal tails of histone proteins serve as epigenetic markers to recruit factors that can then modify local chromatin structure to lead to functional consequences. […] Methylation of biotinylated-histone peptide is measured through specific antibody-based detection, in conjunction with streptavidin-coated donor and anti-IgG antibody-coated acceptor beads. […]
Out of some 350,000 compounds screened, about 31,000 (8.9%) were called active. About 15% were inconclusive and are not listed. Many of the other results were omitted from the sample, so actives are more common in it than they were.
VALUE_KIND: Potency

Answered examples (5):
# compound O=C1CC(c2ccccc2)C(=O)N1c1cccc(O)c1 (stereo unspecified) ; its Potency = inactive

# compound `CCOc1ccccc1NC(=O)Cn1ncc2ccc([N+](=O)[O-])cc21` ; its Potency = inactive

According to the records, this compound `Cc1ccc(Nc2c(-c3ccc(N(C)C)cc3)nc3nc[nH]n23)cc1` displays Potency of 2.51 µM (active)

Short answer for `Cc1nc2ccn(Cc3cccnc3)c(=O)c2cc1C(=O)N1CCN(c2ccccc2F)CC1` : Potency was inactive

Looking up `CCOc1ccc(NC(=O)CN(C)C(=O)Cc2sc(C)nc2-c2ccc(F)cc2)cc1OCC` , I see its Potency listed as inactive

Next:
Noted for Cc1cccc(N2C(=O)CC(SC(N)=Nc3ccccc3)C2=O)c1 (stereo unspecified) : its Potency reads inactive

According to the records, this compound `O=C(c1ccccc1)c1cc(-c2ccccn2)c(N2CCOCC2)s1` displays Potency of inactive

GET /value?item= COC(=O)c1ccccc1SC1CC(=O)N(c2cccc(C)c2)C1=O (stereo unspecified) &field=Potency returns 44.7 µM (active)

For `CCc1ccc2ncc(C(=O)c3ccccc3)c(N3CCOCC3)c2c1` the compound record lists Potency as 56.2 µM (active)

`CCc1cccc(NC(=O)c2cnc(N3CCOCC3)c3ccccc23)c1` yielded Potency of inactive

Measured Potency, CC(C)C(NC(=O)c1c(F)cccc1F)C(=O)NCc1ccncc1 (stereo unspecified) : inactive

* * *

# activity, negative = inhibition per record follows
Target: Histone-lysine N-methyltransferase EHMT2 (Homo sapiens)
Assay: qHTS Assay for Inhibitors of Histone Lysine Methyltransferase G9a; further: nearly all actives have a fitted effect of over 75% in size; on activity, negative = inhibition: on the % scale 0 is the no-effect control and ±100 the full control effect
Details: G9a H3K9 monomethylation, AlphaScreen, 2 h; series mostly up to 59 µM
The campaign covered roughly 350,000 compounds. About 31,000 (8.9%) were called active. Roughly 15% stayed inconclusive and do not appear here. This is one part of a sample in which actives are shown more often than they occur.

What the record says about `COc1cccc(-c2nc(S(=O)(=O)c3ccccc3)c(N3CCOCC3)o2)c1` : activity, negative = inhibition is -43% [at 12.7 µM] (inactive)

Note to self: activity, negative = inhibition recorded for `CCCCNC(=O)CCn1c(=S)[nH]c2cc3c(cc2c1=O)OCO3` was 5.03% [at 0.0925 µM] (inactive)

Form: compound = CC(C(=O)Nc1ccc(S(=O)(=O)N2CCCC2)cc1)N(C)Cc1ccc(F)cc1 (centres undefined) ; activity, negative = inhibition = 2.24% [at 2.33 µM] (inactive)

The measured activity, negative = inhibition associated with `Cc1nn(Cc2ccccc2)c(C)c1C(=O)NCCCN1CCCC1=O` reads 10.5% [at 12.7 µM] (inactive)

Reported activity, negative = inhibition for `COc1ccc(Cl)cc1NC(=O)COc1ccc2c(c1)OCO2` was 6.56% [at 12.7 µM] (inactive)

In plain terms, `CC(C)CCN1CCN=C1N(C)C` has a documented activity, negative = inhibition of 11% [at 2.33 µM] (inactive)

***
Lookup result for `O=[N+]([O-])c1cccc(/C=N/Nc2ncc(Br)cn2)c1` ; measured activity, negative = inhibition: 18% [at 0.501 µM] (inactive)

activity, negative = inhibition measured on `CCN1C(=O)C(=O)N(CC(=O)Nc2cc(C)ccc2C)C1=O` = 1.01% [at 2.33 µM] (inactive)

The compound `CCCNC(=O)CCn1cc(-c2ccc(OC)cc2)nc1CCN` showed activity, negative = inhibition equal to -5.65% [at 2.33 µM] (inactive)

activity, negative = inhibition reading for `Cc1cc(C(=O)OCC(=O)Nc2ccccc2Cl)c(C)o1` : -9.85% [at 12.7 µM] (inactive)

# compound `CC1(C)CC(=O)C=C(c2ccc3ncccc3c2)C1` ; its activity, negative = inhibition = 6.31% [at 2.33 µM] (inactive)

Per the records, this compound ( `CCN1N=C(c2ccccc2)CCC1=O` ) has activity, negative = inhibition equal to 21.7% [at 0.501 µM] (inactive)

Record `Cc1ccccc1N1CCN(S(=O)(=O)c2ccc3ccccc3c2)CC1` , field activity, negative = inhibition: 14.6% [at 0.501 µM] (inactive)

Entry `COc1ccc(NC(=O)COC(=O)c2n[nH]c3ccccc23)c(OC)c1` ; activity, negative = inhibition = 3.57% [at 12.7 µM] (inactive)

The value of activity, negative = inhibition measured for the compound `Cc1ccccc1OCCC(=O)OCC(=O)NCCc1ccc(S(N)(=O)=O)cc1` turned out to be -2.83% [at 12.7 µM] (inactive)
